Data credit: PubChem BioAssay AID1963856

Tested on: LG0567-F671-PDC KRAS tumor spheroid viability
Assay: Anticancer human tumor LG0567-F671-PDC patient-derived lung adenocarcinoma cell line growth inhibition [KRAS2]; active means viability on the fitted dose curve at most 10% of control; inactive means the rest
Details: second compound 3.16 µM; first compound 0.001 µM; spheroids with HUVEC and MSC
Log the outcome using a class from y (active), n (inactive)

Solved cases (4 shown):
Compound | Cat
CC(=O)Nc1cccc(-n2c(=O)n(C3CC3)c(=O)c3c(Nc4ccc(I)cc4F)n(C)c(=O)c(C)c32)c1 + CC1OCC2(CCN(c3cnc(Sc4ccnc(N)c4Cl)c(N)n3)CC2)C1N | y
CN(C)C/C=C/C(=O)Nc1cc2c(Nc3ccc(F)c(Cl)c3)ncnc2cc1O[C@H]1CCOC1 + C=CC(=O)N1CCN(c2nc(OCC3CCCN3C)nc3c2CCN(c2cccc4cccc(C)c24)C3)CC1CC#N | n
CC(C)n1nc(-c2ccc3oc(N)nc3c2)c2c(N)ncnc21 + COc1cc2nc(C)nc(NC(C)c3cc(N)cc(C(F)(F)F)c3)c2cc1OC1CCOC1 | n
Cn1ncnc1[C@H]1c2n[nH]c(=O)c3cc(F)cc(c23)N[C@@H]1c1ccc(F)cc1 + C=CC(=O)N1CCN(c2nc(=O)n(-c3c(C)ccnc3C(C)C)c3nc(-c4c(O)cccc4F)c(F)cc23)C(C)C1 | n

Called result for CN(C)C/C=C/C(=O)Nc1cc2c(Nc3ccc(F)c(Cl)c3)ncnc2cc1O[C@H]1CCOC1 + CNCc1ccccc1-c1csc(C(C)Nc2nc(C)nc3cc(OC)c(OC)cc23)c1
n

---

Item-by-item account of viability, T/C
Test system: LG0567-F671-PDC KRAS tumor spheroid viability
Test: Anticancer human tumor LG0567-F671-PDC cell line growth inhibition [KRAS2];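 further: drug exposure lasted seven days after spheroids formed for three days; 100% = DMSO vehicle control viability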
Settings: second compound 3.16 µM; first compound 0.00316 µM; stronger effect = lower value; spheroids with HUVEC and MSC
Give just the number in %; leave the unit off.

Example entries begin here.
Molecule | System Name | Readout Label | Result Number
CC(C)n1nc(-c2ccc3oc(N)nc3c2)c2c(N)ncnc21 + COc1cc2nc(C)nc(NC(C)c3cc(N)cc(C(F)(F)F)c3)c2cc1OC1CCOC1 | LG0567-F671-PDC KRAS tumor spheroid viability | viability, T/C | 38.4
CCN1CCN(Cc2ccc(Nc3ncc(F)c(-c4cc(F)c5nc(C)n(C(C)C)c5c4)n3)nc2)CC1 + COc1cc2nc(C)nc(NC(C)c3cc(N)cc(C(F)(F)F)c3)c2cc1OC1CCOC1 | LG0567-F671-PDC KRAS tumor spheroid viability | viability, T/C | 44.4
CN(C)C/C=C/C(=O)Nc1cc2c(Nc3ccc(F)c(Cl)c3)ncnc2cc1O[C@H]1CCOC1 + CC1OCC2(CCN(c3cnc(Sc4ccnc(N)c4Cl)c(N)n3)CC2)C1N | LG0567-F671-PDC KRAS tumor spheroid viability | viability, T/C | 16.2

Quick one: viability, T/C of Cn1ncnc1[C@H]1c2n[nH]c(=O)c3cc(F)cc(c23)N[C@@H]1c1ccc(F)cc1 + C=CC(=O)N1CCN(c2nc(OCC3CCCN3C)nc3c2CCN(c2cccc4cccc(C)c24)C3)CC1CC#N ?
15.4

Find the recorded viability, T/C belonging to Cn1ncnc1[C@H]1c2n[nH]c(=O)c3cc(F)cc(c23)N[C@@H]1c1ccc(F)cc1 + C=CC(=O)N1CCN(c2nc(=O)n(-c3c(C)ccnc3C(C)C)c3nc(-c4c(O)cccc4F)c(F)cc23)C(C)C1 and report it.
25.2
